- test-system: human α1aAR WT (Homo sapiens, UniProt P35348)
- Sequence (P35348 1-466): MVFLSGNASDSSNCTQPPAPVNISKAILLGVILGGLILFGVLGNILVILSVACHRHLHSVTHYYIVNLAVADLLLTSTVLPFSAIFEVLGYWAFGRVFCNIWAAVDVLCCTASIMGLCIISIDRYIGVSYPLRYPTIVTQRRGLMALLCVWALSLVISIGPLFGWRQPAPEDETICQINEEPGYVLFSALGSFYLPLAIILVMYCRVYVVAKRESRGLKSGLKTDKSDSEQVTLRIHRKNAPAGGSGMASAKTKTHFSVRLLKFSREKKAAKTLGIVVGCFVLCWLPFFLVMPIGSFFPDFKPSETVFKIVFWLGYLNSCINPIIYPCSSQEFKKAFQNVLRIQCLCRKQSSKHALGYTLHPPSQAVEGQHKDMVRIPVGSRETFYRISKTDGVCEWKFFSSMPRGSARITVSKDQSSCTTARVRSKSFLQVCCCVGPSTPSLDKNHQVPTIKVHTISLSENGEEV
experimental-readout: Kd (nM)
Note: unit nM is implicit; provide only the numeric part.

Enquiry: Entry O=C1c2ccccc2CCC1CNCCc1ccc(O)c(I)c1 (stereo not shown) [[^125I]HEAT] : reported Kd = ?
Return: 0.0421
